# TEST: Metabolic stability in human liver microsomes
# TEST PARAMETERS: hepatic in vivo blood clearance calculated with well stirred liver model; 1 µM compound; '(stable)' given beside < 0.01
PROPERTY: CLblood, human microsomes (mL/min/kg)

Consider the reported CLblood, human microsomes for these compounds:
CC1(O)CCN(C2CN(c3nc(N[C@H]4C[C@H](O)C4)nc4c3cnn4-c3cccc(C(F)(F)F)c3)C2)CC1 [Example I-79]    6.83
CC1(N2CCOCC2)CN(c2nc(NC3CCS(=O)(=O)CC3)nc3c2cnn3-c2cccc(C(F)(F)F)c2)C1 [Example I-106]    11.3

a: CC(C)(O)C1CCN(c2nc(NC3CCS(=O)(=O)CC3)nc3c2cnn3-c2cccc(C(F)F)c2)CC1 [II-5]
b: C[C@]1(O)C[C@H](Nc2nc(N3CC(N4CCOCC4)C3)c3cnn(-c4cccc(C(F)(F)F)c4)c3n2)C1 [Example I-77]
Which has the smaller recorded CLblood, human microsomes, a or b ? Response format: the label of the selected entry.
a

a: C[C@H]1C[C@H](Nc2nc(N3CCC(C(C)(C)O)CC3)c3cnn(-c4cccc(C(F)(F)F)c4)c3n2)CN1 [Example I-40]
b: CC(C)(N)C1CCN(c2nc(N[C@@H]3CNC(=O)C3)nc3c2cnn3-c2cccc(C(F)(F)F)c2)CC1 [Example I-47]
Which has the smaller recorded CLblood, human microsomes, a or b ? Response format: the label of the selected entry.
a
(a: 1.2 mL/min/kg, b: 2.83 mL/min/kg)

a: O=C1C[C@H](Nc2nc(N3CC(CC(=O)N4CCOCC4)C3)c3cnn(-c4cccc(C(F)(F)F)c4)c3n2)CN1 [Example I-51]
b: O=S1(=O)CCC(Nc2nc(N3CC(CN4CCOCC4)C3)c3cnn(-c4cccc(C(F)(F)F)c4)c3n2)CC1 [Example I-60]
c: O=S1(=O)C[C@H](Nc2nc(N3CC(N4CCOCC4)C3)c3cnn(-c4cccc(C(F)(F)F)c4)c3n2)[C@@H](O)C1 (relative stereo) [Example I-37]
d: O=C1C[C@H](Nc2nc(N3CCC(N4CCOCC4)CC3)c3cnn(-c4cccc(C(F)(F)F)c4)c3n2)CN1 [Example I-27]
Your job: order these 4 records by CLblood, human microsomes, ascending. Note for the reader: the ranking is given by listing the labels in the order requested.
c, d, a, b
